System: L1210 leukemia ip in BDF1 mice, survival T/C
assay-method-text: NCI In Vivo Anticancer Drug Screen. Data for tumor model L1210 Leukemia (intraperitoneal) in B6D2F1 (BDF1) mice
study-conditions: endpoint: mean survival time; dose: 100.0 mg/kg/injection; schedule: Q01DX001 (ip); vehicle: Klucel (hydroxypropylcellulose) (HPC); higher = longer survival
Inconclusive results and toxic doses are left out.
Listing: T/C of selected compounds

Oc1ccc2[nH]c3c(c2c1)C[P+](Cc1cccc2ccccc12)(c1ccccc1)CC3 (stereo not drawn)
98 % of control
c1ccc([Se]c2ccccn2)nc1
105 % of control
CC1CCCCN1Cc1ccccc1COC(=O)c1ccc(Cl)cc1 (stereo not drawn)
98 % of control
CCNS(=O)(=O)c1ccc(Cl)c([N+](=O)[O-])c1
101 % of control
c1ccc2c(c1)ccc1cc3c(ccc4ccccc43)cc12
108 % of control

IN: Look up T/C for this compound: O=C(O)C(c1ccccc1)c1ccccc1
OUT: 97 % of control

IN: Look up T/C for this compound: Cc1ccc(S(=O)(=O)Nc2ccc([N+](=O)[O-])cc2)cc1
OUT: 97 % of control

IN: Look up T/C for this compound: COC(=O)C1=CN(C(=O)OC)CCC1
OUT: 95 % of control

IN: Look up T/C for this compound: CN1C(=O)N(Br)C(C)(C)C1=O
OUT: 92 % of control

IN: Look up T/C for this compound: CC(=O)N(C)c1ccc(S(=O)(=O)F)cc1
OUT: 103 % of control

IN: Look up T/C for this compound: Cc1ccc(NC(=O)c2ccco2)cc1Cl
OUT: 93 % of control

IN: Look up T/C for this compound: O=C1/C(=C\c2ccccc2)Sc2cc[nH]c21
OUT: 96 % of control

IN: Look up T/C for this compound: CCC(=O)c1c(C)[nH]c(C)c1C
OUT: 96 % of control

From: PubChem BioAssay AID248
